Data origin: patent US20200123233A1

Target: Rabies virus glycoprotein G, strain CVS-11 (Challenge Virus Standard-11, ATCC VR 959) (Rabies virus, strain CVS-11)
Experiment: cell-based or functional assay
Measured property: CVS neutralizing antibody titre (RFFIT): IU/mg (IU/mg)
Give the value, in units of IU/mg, as a plain number.

Memo: 214-F8 15GS 214-F8 (VHH) EVQLVESGGDLVQAGGSLRLSCVASGSTYSINAMGWYRQAPGKLRELVAAFRTGGSTDYADSVKGRFTISRDTAKNTVYLQMNSLKPEDTAVYYCNAEVIYYPYDYWGQGTQVTVSSGGGGSGGGGSGGGGSEVQLVESGGDLVQAGGSLRLSCVASGSTYSINAMGWYRQAPGKLRELVAAFRTGGSTDYADSVKGRFTISRDTAKNTVYLQMNSLKPEDTAVYYCNAEVIYYPYDYWGQGTQVTVSS , reported CVS neutralizing antibody titre (RFFIT): IU/mg: 650
